Taken from ChEMBL document CHEMBL1201862.

Tested on: MOLT-4
RUN DESCRIPTION: NCI tumour cell line growth inhibition, 48 h
Activity calls are given as the source filed them. Rule as the data show it: active = GI50 up to about 1.1 µM and inactive = higher.
Overview of recorded GI50 for various molecules

O=C(OC1C(Oc2ccccc2COC(=O)C2(O)C=CCCC2=O)OC(CO)C(O)C1O)c1ccccc1 (centres undefined) :: 6.03 µM (inactive)
CN(CCCCN1CCCC1)CCCN(C)C(=O)Cc1ccc(Cl)c(Cl)c1 :: 8.91 µM (inactive)

Q) What does the data say about its GI50? Entry: CCOC(=O)c1c(NC(=O)c2cccs2)sc2c1CCCC2
A) > 100 µM (inactive)

Q) GI50 lookup needed for CCOP1(=O)CC(C)=C(Cl)C(O)C1 (centres undefined) , thanks.
A) > 100 µM (inactive)

Q) Which GI50 is reported for this molecule? COC(=O)c1ccc(CCC2=CC(=O)C(Br)=CC2=O)cc1
A) 2.47 µM (inactive)

Q) Can you look up the measured GI50 of NC1=NS(=O)(=O)Nc2[nH]c(-c3ccccc3)nc21 for me?
A) > 100 µM (inactive)

Q) Reported GI50, molecule C/C(=N\Nc1nc2ccccc2o1)c1cc(C)ncn1 : ____
A) < 0.01 µM (active)

Q) What GI50 value was documented for this molecule, COc1cc(C2c3cc4c(cc3[C@@H](Nc3ccc(C(=O)O)cc3)C3COC(=O)[C@H]23)OCO4)cc(OC)c1O (some centres undefined) ?
A) 0.546 µM (active)

Q) Could you share which GI50 value was measured for CCCCCCCCCC[C@@H](OC(C)=O)[C@@H]1CC[C@@H]([C@@H]2CC[C@@H]([C@@H](O)CC#C/C=C/CCCCCCC[C@@]3(Sc4ccccc4)C[C@H](C)OC3=O)O2)O1 ?
A) > 10 µM (inactive)

Q) Record request: GI50 value, item CCP(C)(C)=O
A) > 100 µM (inactive)

Q) So what does the record say about GI50 for O=C(O)CNC(=O)CO/N=C1/C(=C2/C(=O)Nc3ccccc32)Nc2ccccc21 ?
A) 70.3 µM (inactive)

Q) Consider the molecule CN(C)c1ccc(-c2nc(N)nc3c2CCCC3)cc1 and give its measured GI50.
A) 30.2 µM (inactive)

Q) Fill in: GI50 of O=C(CCc1cc(O)cc(O)c1)NCCCNC(=O)CCc1cc(O)cc(O)c1 is ___
A) > 100 µM (inactive)

Q) Requested read-out: GI50. Entry: Cc1ccc(S(=O)(=O)Oc2nc3ccccc3nc2OS(=O)(=O)c2ccc(C)cc2)cc1
A) 71.3 µM (inactive)

Q) What value of measured GI50 is listed for Nc1ncnc2c1nnn2C1C=C(CO)C(O)C1O (centres undefined) ?
A) > 100 µM (inactive)

Q) State the recorded GI50 for this entry: C1CC2CN(CCCN3CCOCC3)C(C1)O2 (centres undefined)
A) > 100 µM (inactive)

Q) Which GI50 value is on record for CC(C)[C@@H](COC(C)(C)C)/N=C/N1CCc2c([nH]c3ccccc23)C1 ?
A) > 100 µM (inactive)

Q) Given the molecule Nc1cccc2c1C1=NNC(=O)CC1C2 (centres undefined) , what is its reported GI50?
A) > 100 µM (inactive)

Q) So what does the record say about GI50 for CC#CC#C/C=C1/O[C@]2(CCC(OC(C)=O)CO2)[C@@H]2O[C@H]12 (some centres undefined) ?
A) 17 µM (inactive)
